Target: Recombinant human c-Met protein (Homo sapiens, UniProt P08581)
Sequence (P08581 25-1390): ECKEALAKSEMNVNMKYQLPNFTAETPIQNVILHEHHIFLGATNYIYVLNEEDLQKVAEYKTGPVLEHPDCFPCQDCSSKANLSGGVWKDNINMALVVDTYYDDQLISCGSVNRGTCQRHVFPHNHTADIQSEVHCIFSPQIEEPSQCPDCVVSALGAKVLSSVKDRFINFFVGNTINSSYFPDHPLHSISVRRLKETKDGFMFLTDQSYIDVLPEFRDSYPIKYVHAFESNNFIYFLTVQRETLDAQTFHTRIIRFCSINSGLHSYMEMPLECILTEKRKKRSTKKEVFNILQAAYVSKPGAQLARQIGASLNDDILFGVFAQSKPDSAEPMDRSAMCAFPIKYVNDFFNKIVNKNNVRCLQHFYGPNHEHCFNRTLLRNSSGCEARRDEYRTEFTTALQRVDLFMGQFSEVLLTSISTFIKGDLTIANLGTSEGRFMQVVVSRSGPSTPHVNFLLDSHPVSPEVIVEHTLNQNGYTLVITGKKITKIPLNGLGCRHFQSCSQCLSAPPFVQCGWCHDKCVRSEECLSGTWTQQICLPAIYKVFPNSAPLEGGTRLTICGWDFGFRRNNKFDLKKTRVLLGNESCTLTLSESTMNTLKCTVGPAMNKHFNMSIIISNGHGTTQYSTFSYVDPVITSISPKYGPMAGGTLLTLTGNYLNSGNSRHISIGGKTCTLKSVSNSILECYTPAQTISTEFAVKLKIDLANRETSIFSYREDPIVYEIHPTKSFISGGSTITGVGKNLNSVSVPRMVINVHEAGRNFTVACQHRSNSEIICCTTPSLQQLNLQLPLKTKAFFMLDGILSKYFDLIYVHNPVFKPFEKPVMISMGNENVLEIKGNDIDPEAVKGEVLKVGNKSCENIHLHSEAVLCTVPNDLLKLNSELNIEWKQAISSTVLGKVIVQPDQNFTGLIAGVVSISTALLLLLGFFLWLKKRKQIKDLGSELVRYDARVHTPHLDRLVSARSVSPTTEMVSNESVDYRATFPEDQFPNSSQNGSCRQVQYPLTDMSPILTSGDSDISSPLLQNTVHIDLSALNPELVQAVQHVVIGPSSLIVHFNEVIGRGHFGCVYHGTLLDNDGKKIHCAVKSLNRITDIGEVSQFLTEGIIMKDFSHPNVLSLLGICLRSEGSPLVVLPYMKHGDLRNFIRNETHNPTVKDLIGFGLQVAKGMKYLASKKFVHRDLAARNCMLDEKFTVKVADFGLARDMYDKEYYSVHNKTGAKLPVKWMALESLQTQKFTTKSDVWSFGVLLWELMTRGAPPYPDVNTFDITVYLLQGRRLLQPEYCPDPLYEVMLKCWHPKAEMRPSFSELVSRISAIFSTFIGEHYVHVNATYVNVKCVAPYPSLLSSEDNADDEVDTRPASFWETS
Test: c-Met receptor tyrosine kinase activity assay (NADH read-out)
Conditions: c-Met 30 nM, ATP 30 μM, 100 min at 32° C.
Test readout: IC50 (nM)
Numbers only, in nM.

{"Molecule": "CC1=C(C#N)C(c2ccc3[nH]nc(C)c3c2)C(C#N)=C2COCCN12 (single isomer, unassigned) [Example 2]", "Experimental system": "Recombinant human c-Met protein (Homo sapiens, UniProt P08581)", "Unit annotation": "nM", "Result": 8}
{"Molecule": "CCc1n[nH]c2ccc(C3C(C#N)=C(C)N4CCOCC4=C3C#N)cc12 (single isomer, unassigned) [Example 5]", "Experimental system": "Recombinant human c-Met protein (Homo sapiens, UniProt P08581)", "Unit annotation": "nM", "Result": 12}
{"Molecule": "CC1=C(C#N)C(c2ccc3[nH]nc(-c4ccc(F)nc4)c3c2)C(C#N)=C2COCCN12 (stereo not shown) [Example 7]", "Experimental system": "Recombinant human c-Met protein (Homo sapiens, UniProt P08581)", "Unit annotation": "nM", "Result": 23}

Moving on to another molecule below.
Request: Recorded IC50 for CCc1n[nH]c2ccc(C3C(C#N)=C(C)N4CCOCC4=C3C#N)cc12 (single isomer, unassigned) [Example 6] , please?
Response: 88
